# Tested on: Amaranthus palmeri (AMAPA)
# measurement_protocol: Post-emergence herbicide glasshouse test
# Format: in vivo
# assay_setup: 250 g/ha, evaluated after 13 days, five-point scale
property_measured: percentage damage caused to the plant, AMAPA

molecule="FC(F)(F)CCC(Br)c1nc(C(F)(F)F)nc2cccc(Oc3ncc(Cl)cn3)c12 (stereo not drawn)" data_value="5 (5=81-100%)"
molecule=CON=C(C)c1nc(C(F)(F)F)nc2cccc(Oc3ncc(Cl)cn3)c12 data_value="2 (2=21-40%)"
molecule=O=C(c1ccc(F)cn1)c1nc(C(F)(F)F)nc2cccc(Oc3ncc(Cl)cn3)c12 data_value="1 (1=0-20%)"
molecule=CO/N=C/CCc1nc(C(F)(F)F)nc2cccc(Oc3ncc(Cl)cn3)c12 data_value="4 (4=61-80%)"
molecule="OCC(O)CCc1nc(C(F)(F)F)nc2cccc(Oc3ncc(Cl)cn3)c12 (stereo not drawn)" data_value="3 (3=41-60%)"
molecule=Fc1cnc(Oc2cccc3nc(C(F)(F)F)nc(CCC4CC4)c23)nc1 data_value="4 (4=61-80%)"
molecule="FC(F)(F)c1nc(CCC2CCOC2)c2c(Oc3ncc(Cl)cn3)cccc2n1 (stereo not drawn)" data_value="4 (4=61-80%)"
molecule=FC(F)(F)c1nc(CC=NOCC2CC2)c2c(Oc3ncc(Cl)cn3)cccc2n1 data_value="4 (4=61-80%)"
molecule="CC(=NOCC1CC1)c1nc(C(F)(F)F)nc2cccc(Oc3ncc(Cl)cn3)c12 [Compound 1.003]" data_value="1 (1=0-20%)"
molecule=Cc1cnc(Oc2cccc3nc(C(F)(F)F)nc(CCC4CC4)c23)nc1 data_value="2 (2=21-40%)"

Give one value of percentage damage caused to the plant, AMAPA per listed molecule.
1. O=CCCc1nc(C(F)(F)F)nc2cccc(Oc3ncc(Cl)cn3)c12
2. Cc1ccc(Oc2ncc(Cl)cn2)c2c(CCC3CC3)nc(C(F)(F)F)nc12
3. FC(F)(F)c1nc(CCC2CCCCC2)c2c(Oc3ncc(Cl)cn3)cccc2n1
4. FC(F)(F)c1nc(CCC2CC2)c2c(Oc3ncc(Cl)cn3)cccc2n1
5. O=C(c1ccccn1)c1nc(C(F)(F)F)nc2cccc(Oc3ncc(Cl)cn3)c12
6. O=C(c1ccc(Br)cn1)c1nc(C(F)(F)F)nc2cccc(Oc3ncc(Cl)cn3)c12

1: 3 (3=41-60%); 2: 2 (2=21-40%); 3: 4 (4=61-80%); 4: 4 (4=61-80%); 5: 1 (1=0-20%); 6: 2 (2=21-40%)
